Documented PBM binding z-score across a set of sequences
- Test system: PXR homodimer (NR concentration 270 nM)
- TEST PROTOCOL: PBM binding z-score (relative to random genomic background probes); higher = stronger binding; sequences stand for … in GC…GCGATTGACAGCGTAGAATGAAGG
MEASUREMENT KIND: PBM binding z-score

* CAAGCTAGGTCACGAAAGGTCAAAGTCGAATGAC | 3.04
* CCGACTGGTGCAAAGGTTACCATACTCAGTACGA | -0.109
* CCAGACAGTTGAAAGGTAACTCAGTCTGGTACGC | 0.144
* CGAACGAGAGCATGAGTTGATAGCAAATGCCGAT | -0.148
* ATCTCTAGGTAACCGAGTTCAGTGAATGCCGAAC | 2.94
* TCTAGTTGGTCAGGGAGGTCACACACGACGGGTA | 1.55
* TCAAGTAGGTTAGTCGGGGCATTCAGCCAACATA | 0.708
* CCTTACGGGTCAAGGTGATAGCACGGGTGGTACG | -0.103
* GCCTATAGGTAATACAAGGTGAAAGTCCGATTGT | 0.00334
* TGAGTGAGGTTAAAGATCAGGGAACGTGGCGTCG | 0.027
* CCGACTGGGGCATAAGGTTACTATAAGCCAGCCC | -0.23
* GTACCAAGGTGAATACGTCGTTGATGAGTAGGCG | -0.456
* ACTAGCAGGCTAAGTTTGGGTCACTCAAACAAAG | -0.438
* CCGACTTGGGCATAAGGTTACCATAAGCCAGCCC | -0.364
* CCTATTAGTTGACCATAAGGGGAACCGAAGCTCG | 0.854
* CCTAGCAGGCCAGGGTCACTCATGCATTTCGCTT | -0.121
* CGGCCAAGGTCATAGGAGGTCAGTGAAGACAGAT | 3.6
* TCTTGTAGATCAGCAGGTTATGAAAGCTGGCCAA | -0.253
* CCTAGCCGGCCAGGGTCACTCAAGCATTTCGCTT | -0.583
* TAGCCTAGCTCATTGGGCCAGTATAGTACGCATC | -0.368
* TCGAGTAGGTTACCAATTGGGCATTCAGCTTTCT | -0.745
* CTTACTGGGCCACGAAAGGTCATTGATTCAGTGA | 2.14
* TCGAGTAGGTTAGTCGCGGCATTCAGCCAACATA | -0.771
* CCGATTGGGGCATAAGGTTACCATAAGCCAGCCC | -0.12
* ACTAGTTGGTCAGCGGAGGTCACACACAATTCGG | 1.8
* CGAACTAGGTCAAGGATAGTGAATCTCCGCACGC | -0.425

----------
- Tested on: VDR:RXRa (NR concentration 270 nM, RXRa partner concentration 90 nM)
- TEST PROTOCOL: PBM binding z-score (relative to random genomic background probes); higher = stronger binding; sequences stand for … in GC…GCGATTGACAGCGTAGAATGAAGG
Quick rule: PBM binding z-score of at least 2 means yes, below that means no.

- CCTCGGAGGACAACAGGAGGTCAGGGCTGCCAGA: no
- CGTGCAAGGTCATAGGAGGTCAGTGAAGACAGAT: yes
- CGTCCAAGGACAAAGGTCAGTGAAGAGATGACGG: yes
- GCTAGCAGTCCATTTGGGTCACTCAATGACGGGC: no
- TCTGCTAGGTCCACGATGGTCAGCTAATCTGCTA: no
